B1: ZNF263 (parent)
chain: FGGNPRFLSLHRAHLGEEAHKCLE

- Variants of: B1
- Assay summary: protein stability index of a GFP-peptide fusion (GPS, HEK-293T) (PSI 1-6); higher = more stable;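 note: lentivirally expressed fusions sorted by FACS into six bins by GFP to DsRed ratio, PSI derived from sequencing read proportions per bin multiplied by bin number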
- Details: c terminus: a fixed tail appended
Label scheme for protein stability index: lower than 2 is F, 2 and above is T.

Variant string | Cat
H11P | F
R12W | F
G2C | F
R12Q | T
S9A | F

Ask: Decide: is the reported value of protein stability index for `L8H` equal to or greater than 2?
Result: F

Ask: Decide: is the reported value of protein stability index for `A19W` equal to or greater than 2?
Result: T

Ask: Decide: is the reported value of protein stability index for `E24G` equal to or greater than 2?
Result: F

Ask: Decide: is the reported value of protein stability index for `F1S` equal to or greater than 2?
Result: T

Ask: Decide: is the reported value of protein stability index for `S9Y` equal to or greater than 2?
Result: T

Ask: Decide: is the reported value of protein stability index for `A13I` equal to or greater than 2?
Result: F
